assay: caspase-8 TRAIL sensitization, hit retest, confirmation, cell-based, NB7+caspase-8, with/without TRAIL, luminescence panel (AID 651596); settings: NB7 neuroblastoma + caspase-8, without TRAIL, luminescence viability, without TRAIL, mean of runs, at 10 µM
Recorded measurements of activity, one per entry

{"columns": ["compound", "observation type", "reported"],
 "data": [
  ["Cc1cccc(-c2noc(-c3ccc4c(c3)OCO4)n2)c1", "activity", "60.1%"],
  ["Cc1ccc(NC(=O)c2ccc(C)cc2)cc1", "activity", "63.8%"],
  ["CCOC(=O)Cc1csc(NC(=S)NC(=O)c2ccc(Cl)cc2)n1", "activity", "63.8%"],
  ["Cc1ccc(NC(=O)c2cc3ccccc3o2)nc1", "activity", "49.5%"],
  ["CC1CCc2nc(NC(=O)c3ccco3)sc2C1 (stereo not drawn)", "activity", "89%"],
  ["CC(C)C[C@H](NC(=O)c1nc[nH]c1C(=O)N[C@@H](CCCCNC(=O)OC(C)(C)C)C(=O)OC(C)(C)C)C(=O)OCc1ccccc1", "activity", "20.4%"],
  ["C=C(C)CSc1nnc2n(C)c(=O)c3c4c(sc3n12)CCC4", "activity", "63.9%"],
  ["Nc1ccc(-c2nc3ncccc3o2)c(Cl)c1", "activity", "32.2%"],
  ["COc1cccc2sc(N(CCCN(C)C)C(=O)c3ccc(S(=O)(=O)N4CCc5ccccc5C4)cc3)nc12", "activity", "79%"],
  ["Fc1ccc(/C=N/Nc2nc(-c3cccnc3)nc3ccccc23)cc1", "activity", "19.2%"]
]}

Param item = "O=Nc1c2cc(-c3ccccc3)[nH]nc-2c2ccccc12" ; retrieve measured activity. 78.7%

Param item = "Cc1ccccc1-c1nnc(-c2cccc3ccccc23)o1" ; retrieve measured activity. 32.4%
